This listing pairs molecules with measured Plant response rating, Soybean.
tested on: soybean; test: Test B pre/postemergence soybean; type: in vivo, Glycine max; conditions: Rate 500 g/ha, Postemergence; scale 0 to 10, 0 no effect, 10 complete control
Answer as a number with no unit attached.

Request: Input CCC(CC)n1c(=O)on(C(=O)N(c2ccccc2)C(C)C)c1=O [Compound 354] , output reported Plant response rating, Soybean.
Response: 7

***
Request: Input CC(C)N(C(=O)n1oc(=O)n(-c2ccc3ccccc3c2)c1=O)c1ccc(Cl)cc1 [Compound 333] , output reported Plant response rating, Soybean.
Response: 4

Request: Input Cc1nnsc1Cn1c(=O)on(C(=O)N(c2ccc(F)cc2)C(C)C)c1=O [Compound 380] , output reported Plant response rating, Soybean.
Response: 1

Request: Input Cc1nsc(Cl)c1Cn1c(=O)on(C(=O)N(c2ccccc2)C(C)C)c1=O [Compound 374] , output reported Plant response rating, Soybean.
Response: 4

Request: Input Cc1ccc(N(C(=O)n2oc(=O)n(-c3ccc4ccccc4c3)c2=O)C(C)C)cc1 [Compound 334] , output reported Plant response rating, Soybean.
Response: 2

Request: Input CC(C)N(C(=O)n1oc(=O)n(N2C(C)CCCC2C)c1=O)c1ccc(F)cc1 (stereo not drawn) [Compound 382] , output reported Plant response rating, Soybean.
Response: 5

====

system: surinam grass; assay: Test B pre/postemergence surinam grass; type: in vivo, Brachiaria decumbens; conditions: Rate 500 g/ha, Postemergence; scale of 0 to 10 where 0 is no effect and 10 is complete control
ENDPOINT_LABEL: B. signalgrass plant response rating
Answer as a number with no unit attached.

Some molecules with known B. signalgrass plant response rating results, for comparison:
Request: Input `CCN(CC)C(=O)n1oc(=O)n(Cc2cccs2)c1=O` , output reported B. signalgrass plant response rating.
Response: 2

Request: Input `Cc1ccccc1Cn1c(=O)on(C(=O)N(c2ccc(F)cc2F)C(C)C)c1=O` , output reported B. signalgrass plant response rating.
Response: 2

Request: Input `CCCn1c(=O)on(C(=O)N(c2ccc(F)cc2)C(C)C)c1=O` , output reported B. signalgrass plant response rating.
Response: 8

Request: Input `CC(C)N(C(=O)n1oc(=O)n(-c2ccnn2C)c1=O)c1ccc(F)cc1` , output reported B. signalgrass plant response rating.
Response: 0

Alright, here's another molecule for you.
Request: Input `Cc1cccc(C)c1-n1c(=O)on(C(=O)N(c2ccc(Cl)cc2)C(C)C)c1=O` , output reported B. signalgrass plant response rating.
Response: 0

====

This listing pairs compounds with measured Plant response rating Johnsongrass.
tested on: Johnson grass; assay: Test D Johnson grass; type: in vivo, Sorghum halepense; settings: Rate 125 g/ha, Preemergence; 0 to 100 scale, 0 no injury, 100 complete control

Request: Input `C=CCn1c(=O)on(C(=O)N(c2ccc(F)cc2F)C(C)C)c1=O` , output reported Plant response rating Johnsongrass.
Response: 50

***
Request: Input `CCn1c(=O)on(C(=O)N(c2ccccc2)C(C)C)c1=O` , output reported Plant response rating Johnsongrass.
Response: 90

Request: Input `CC(C)N(C(=O)n1oc(=O)n(C(C)C)c1=O)c1ccc(Cl)cc1` , output reported Plant response rating Johnsongrass.
Response: 0

Request: Input `CC(C)N(C(=O)n1oc(=O)n(C2CCCCC2)c1=O)c1ccc(F)cc1F` , output reported Plant response rating Johnsongrass.
Response: 60

====

This listing pairs molecules with measured Blackgrass plant response rating.
test system: blackgrass; assay: Test B pre/postemergence blackgrass; type: in vivo, Alopecurus myosuroides; details: Preemergence, Rate 250 g/ha; scale of 0 to 10 where 0 is no effect and 10 is complete control
Answer as a number with no unit attached.

Request: Input `C=CCn1c(=O)on(C(=O)N(CC)C2CCCCC2)c1=O` , output reported Blackgrass plant response rating.
Response: 2

Request: Input CCOC(=O)C(C)N(C(=O)n1oc(=O)n(C2CCCCC2)c1=O)c1ccc(F)cc1 (stereo not shown) , output reported Blackgrass plant response rating.
Response: 0

Request: Input `Cc1nsc(Cl)c1Cn1c(=O)on(C(=O)N(c2ccccc2)C(C)C)c1=O` , output reported Blackgrass plant response rating.
Response: 5

***
Request: Input `Cc1nc(C)c(Cn2c(=O)on(C(=O)N(c3ccc(F)cc3)C(C)C)c2=O)s1` , output reported Blackgrass plant response rating.
Response: 8

====

system: cocklebur; assay: Test B pre/postemergence cocklebur; assay type: in vivo, Xanthium strumarium; conditions: Postemergence, Rate 250 g/ha; scale 0 to 10
This listing pairs compounds with measured Cocklebur plant response rating.

Some compounds with known Cocklebur plant response rating results, for comparison:
Request: Input CC(C)N(C(=O)n1oc(=O)n(CC2=NOCC2)c1=O)c1ccc(F)cc1 [Compound 466] , output reported Cocklebur plant response rating.
Response: 0

Request: Input CC(=O)NCn1c(=O)on(C(=O)N(c2ccc(F)cc2)C(C)C)c1=O [Compound 473] , output reported Cocklebur plant response rating.
Response: 0

Request: Input CC(C)N(C(=O)n1oc(=O)n(CCNC(=O)CCl)c1=O)c1ccccc1 [Compound 492] , output reported Cocklebur plant response rating.
Response: 0

Alright, here's another compound for you.
Request: Input COC(=O)CCCn1c(=O)on(C(=O)N(c2ccc(F)cc2F)C(C)C)c1=O [Compound 513] , output reported Cocklebur plant response rating.
Response: 6

====

tested on: velvetleaf; assay: Test B pre/postemergence velvetleaf; assay type: in vivo, Abutilon theophrasti; conditions: Rate 250 g/ha; Postemergence
ENDPOINT_LABEL: Plant response rating (0 to 10; 0 is no effect, 10 is complete control), Velvetleaf

Some compounds with known Plant response rating (0 to 10; 0 is no effect, 10 is complete control), Velvetleaf results, for comparison:
Request: Lab note: velvetleaf assay, enter Plant response rating (0 to 10; 0 is no effect, 10 is complete control), Velvetleaf for `Cc1nc(C)c(Cn2c(=O)on(C(=O)N(c3ccc(F)cc3)C(C)C)c2=O)s1` here
Response: 2

Request: Lab note: velvetleaf assay, enter Plant response rating (0 to 10; 0 is no effect, 10 is complete control), Velvetleaf for `C=C(C)CCn1c(=O)on(C(=O)N(c2ccc(F)cc2)C(C)C)c1=O` here
Response: 0

Request: Lab note: velvetleaf assay, enter Plant response rating (0 to 10; 0 is no effect, 10 is complete control), Velvetleaf for `CC(C)N(C(=O)n1oc(=O)n(Cc2ccco2)c1=O)c1ccc(F)cc1F` here
Response: 1

***
Request: Lab note: velvetleaf assay, enter Plant response rating (0 to 10; 0 is no effect, 10 is complete control), Velvetleaf for `CSc1ccc(N(C(=O)n2oc(=O)n(-c3ccccc3C)c2=O)C(C)C)cc1` here
Response: 0

====

This listing pairs compounds with measured Blackgrass plant response rating (0 to 10 scale).
test system: blackgrass; test: Test B pre/postemergence blackgrass; format: in vivo, Alopecurus myosuroides; details: Preemergence, Rate 125 g/ha; 0 is no effect, 10 is complete control
Answer as a number with no unit attached.

Some compounds with known Blackgrass plant response rating (0 to 10 scale) results, for comparison:
Request: Input Cc1ccccc1-n1c(=O)on(C(=O)N(c2ccc(Br)cc2)C(C)C)c1=O [Compound 175] , output reported Blackgrass plant response rating (0 to 10 scale).
Response: 0

Request: Input C=C(C)CCn1c(=O)on(C(=O)N(c2ccc(F)cc2)C(C)C)c1=O [Compound 199] , output reported Blackgrass plant response rating (0 to 10 scale).
Response: 10

***
Request: Input COc1nc(OC)nc(N(C(=O)n2oc(=O)n(-c3ccccc3C)c2=O)C(C)C)n1 [Compound 181] , output reported Blackgrass plant response rating (0 to 10 scale).
Response: 0

Request: Input Cc1ccccc1-n1c(=O)on(C(=O)N(c2ccc(Cl)cc2Cl)C(C)C)c1=O [Compound 185] , output reported Blackgrass plant response rating (0 to 10 scale).
Response: 0

====

This listing pairs compounds with measured Plant response rating, Wheat.
tested on: wheat; assay: Test B pre/postemergence wheat; assay type: in vivo, Triticum aestivum; conditions: Postemergence, Rate 125 g/ha; scale of 0 to 10 where 0 is no effect and 10 is complete control
Answer as a number with no unit attached.

Request: Input CC(C)N(C(=O)n1oc(=O)n(CSC#N)c1=O)c1ccc(F)cc1 [Compound 618] , output reported Plant response rating, Wheat.
Response: 0

***
Request: Input CC(C)N(C(=O)n1oc(=O)n(CCCC(F)(F)F)c1=O)c1ccccc1 [Compound 585] , output reported Plant response rating, Wheat.
Response: 2

Request: Input C=C(Cn1c(=O)on(C(=O)N(c2ccccc2)C(C)C)c1=O)c1cccc(Cl)n1 [Compound 605] , output reported Plant response rating, Wheat.
Response: 1

Request: Input CCOP(=O)(Cn1c(=O)on(C(=O)N(c2ccc(Cl)cc2)C(C)C)c1=O)OCC [Compound 599] , output reported Plant response rating, Wheat.
Response: 0

Request: Input CCC(C)n1c(=O)on(C(=O)N(c2ccccc2)C(C)C)c1=O (centres unmarked) [Compound 611] , output reported Plant response rating, Wheat.
Response: 0

Request: Input CC(C)N(C(=O)n1oc(=O)n(CC(=O)N(C)C)c1=O)c1ccccc1 [Compound 588] , output reported Plant response rating, Wheat.
Response: 0

Request: Input CC(C)N(C(=O)n1oc(=O)n(C(CF)CF)c1=O)c1ccc(F)cc1F [Compound 595] , output reported Plant response rating, Wheat.
Response: 0

Request: Input COCCn1c(=O)on(C(=O)N(c2ccc(F)cc2F)C(C)C)c1=O [Compound 628] , output reported Plant response rating, Wheat.
Response: 4
